B1: ATL3 (parent)
chain: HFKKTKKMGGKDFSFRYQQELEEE

Variants of: B1
Assay: protein stability index of a GFP-peptide fusion (GPS, HEK-293T) (PSI 1-6); higher = more stable;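 further: lentivirally expressed fusions sorted by FACS into six bins by GFP to DsRed ratio, PSI derived from sequencing read proportions per bin multiplied by bin number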
Conditions: c terminus: a fixed tail appended
reported.property: protein stability index
Simply state the number, no unit and no words.

The following variants have reported results that may help.
F15H : 2.71
R16A : 2.98
K7I : 2.9

Query (variant): E24W ; field requested: protein stability index
1.9

Value lookup for protein stability index; key = H1K
3.03

Report protein stability index for E24A please.
2.68

# protein stability index lookup, item K3A
2.06

Sample Q19W — what was its protein stability index?
2.03

What protein stability index value was documented for this variant, E23T ?
2.55

Cited source for all entries: the supplement of paper PMC10567573
